Biological target: T1, human LAG3 expressed on cells (human, UniProt P18627 23-525)
T1 construct: whole, on cells
T1 sequence (looked up): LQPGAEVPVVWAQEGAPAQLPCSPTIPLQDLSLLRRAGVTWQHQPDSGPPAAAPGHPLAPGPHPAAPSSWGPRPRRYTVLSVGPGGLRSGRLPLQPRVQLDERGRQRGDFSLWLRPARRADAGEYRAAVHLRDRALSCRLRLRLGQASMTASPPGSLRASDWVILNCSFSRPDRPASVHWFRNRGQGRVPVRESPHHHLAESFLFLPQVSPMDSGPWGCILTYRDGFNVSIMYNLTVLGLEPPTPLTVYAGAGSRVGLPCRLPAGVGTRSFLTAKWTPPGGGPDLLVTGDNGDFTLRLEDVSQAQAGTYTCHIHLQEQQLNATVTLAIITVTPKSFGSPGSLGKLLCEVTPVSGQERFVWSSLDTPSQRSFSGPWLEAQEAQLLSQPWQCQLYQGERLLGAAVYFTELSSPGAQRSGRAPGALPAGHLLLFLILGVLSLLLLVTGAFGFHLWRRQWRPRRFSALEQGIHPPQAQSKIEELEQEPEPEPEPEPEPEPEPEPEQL
Test: cell ELISA, 293T-hLAG3 cells
Parameter OD450 at 1.111111 ug/ml: see the listing below.
Readout Label: OD450 at 1.111111 ug/ml

{"columns": ["Binder", "Result"],
 "data": [
  ["sdAb No. 17-H1 (VHH, Modified sdAb No. 17 (CDR1 DG to DA); not shown: Fc part implied by anti-human IgG1 Fc detection) VHH: QLQLVESGGGLVQPGGSLRLSCAASGLTLDAYAIGWFRQAPGKEREGLACISGSDGSTHYLDSVKGRFTISRDNGKNTMALQMNSLQFGDTAIYYCAARRGSCSGSWTYWGQGTQVTVSS", 1.4],
  ["sdAb No. 27-H1 (VHH, Modified sdAb No. 27 (CDR2 DG to DA); not shown: Fc part implied by anti-human IgG1 Fc detection) VHH: QVQLVESGGGLVQPGGSLRLSCAASGFTLDYYAIGWFRQAPGKEREGVSCIRSSDASTYYADSVKGRFTISSDNTKNTVYLQMNSLKPEDTAVYYCATDRYSDCRGPYENWGQGTQVTVSS", 1.17],
  ["sdAb No. 17 (VHH, Fc of the tested form not described; also called sdAb 17; not shown: Fc part implied by anti-human Fc capture and anti-human IgG1 Fc detection) VHH: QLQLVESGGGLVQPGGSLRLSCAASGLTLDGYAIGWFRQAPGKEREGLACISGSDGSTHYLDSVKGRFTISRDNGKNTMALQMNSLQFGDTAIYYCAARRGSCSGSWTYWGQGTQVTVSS", 1.42],
  ["sdAb No. 17-H4 (VHH, Modified sdAb No. 17 (CDR2 DG to EG); not shown: Fc part implied by anti-human IgG1 Fc detection) VHH: QLQLVESGGGLVQPGGSLRLSCAASGLTLDGYAIGWFRQAPGKEREGLACISGSEGSTHYLDSVKGRFTISRDNGKNTMALQMNSLQFGDTAIYYCAARRGSCSGSWTYWGQGTQVTVSS", 0.979],
  ["sdAb No. 27 (VHH, Fc of the tested form not described; also called sdAb 27; not shown: Fc part implied by anti-human Fc capture and anti-human IgG Fc detection) VHH: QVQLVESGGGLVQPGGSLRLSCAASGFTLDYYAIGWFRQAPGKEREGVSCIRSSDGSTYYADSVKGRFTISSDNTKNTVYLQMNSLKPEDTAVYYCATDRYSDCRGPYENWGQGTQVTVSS", 1.28],
  ["sdAb No. 17-H3 (VHH, Modified sdAb No. 17 (CDR2 DG to DA); not shown: Fc part implied by anti-human IgG1 Fc detection) VHH: QLQLVESGGGLVQPGGSLRLSCAASGLTLDGYAIGWFRQAPGKEREGLACISGSDASTHYLDSVKGRFTISRDNGKNTMALQMNSLQFGDTAIYYCAARRGSCSGSWTYWGQGTQVTVSS", 1.21],
  ["sdAb No. 17-H2 (VHH, Modified sdAb No. 17 (CDR1 DG to EG); not shown: Fc part implied by anti-human IgG1 Fc detection) VHH: QLQLVESGGGLVQPGGSLRLSCAASGLTLEGYAIGWFRQAPGKEREGLACISGSDGSTHYLDSVKGRFTISRDNGKNTMALQMNSLQFGDTAIYYCAARRGSCSGSWTYWGQGTQVTVSS", 1.35],
  ["sdAb No. 27-H2 (VHH, Modified sdAb No. 27 (CDR2 DG to EG); not shown: Fc part implied by anti-human IgG1 Fc detection) VHH: QVQLVESGGGLVQPGGSLRLSCAASGFTLDYYAIGWFRQAPGKEREGVSCIRSSEGSTYYADSVKGRFTISSDNTKNTVYLQMNSLKPEDTAVYYCATDRYSDCRGPYENWGQGTQVTVSS", 1.16]
]}
